Attribution: ChEMBL document CHEMBL3526005

- ASSAY NOTES: Clearance in human at 2 mg, po single dose
- CONDITION DETAILS: in vivo
Entries annotated with measured CL/F

COMPOUND: COc1cc2c(cc1OC)C(=O)C(CC1CCN(Cc3ccccc3)CC1)C2.Cl (stereo not drawn) [DONEPEZIL HYDROCHLORIDE]
UOM: mL/min/kg
CL/F: 2.17
//
COMPOUND: Cl.Nc1c2c(nc3ccccc13)CCCC2 [TACRINE HYDROCHLORIDE]
UOM: mL/min/kg
CL/F: 40.3
//
COMPOUND: Br.COc1ccc2c3c1O[C@H]1C[C@@H](O)C=C[C@@]31CCN(C)C2 [GALANTAMINE HYDROBROMIDE]
UOM: mL/min/kg
CL/F: 5.67
